Target: T1, biotinylated IL-22 with an N-terminal His/FLAG tag (bio.IL-22H/F) (human, UniProt Q9GZX6 34-179, biotinylated (site not stated))
T1 construct: not shown: N-terminal His/FLAG tag
T1 sequence: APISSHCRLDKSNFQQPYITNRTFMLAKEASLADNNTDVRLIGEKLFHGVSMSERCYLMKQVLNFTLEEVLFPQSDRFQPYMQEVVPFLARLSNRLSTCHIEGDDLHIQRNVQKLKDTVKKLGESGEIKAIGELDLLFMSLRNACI
Experiment: biotinylated IL-22 binding IL-22 receptor complex competition assay, purified scFv, fully germlined
measured-parameter: IC50 (nM)
Please respond with the number in nM and leave the unit unwritten.

Dear colleague, I am looking for the recorded IC50 of the following binder: GIL01 scFv, fully germlined (scFv) scFv: QVQLVESGGGLVKPGGSLRLSCAASGFTFSDYYMSWIRQAPGKGLEWVSAISGSGGSTYYADSVKGRITISRDNAKNSLYLQMNSLRAEDTAVYYCARGLWVWDPLDYWGRGTLVTVSSGGGGSGGGGSGGGGSDIQMTQSPSTLSASVGDRVTITCRASEGIYHWLAWYQQKPGKAPKLLIYKASSLASGVPSRFSGSGSGTDFTLTISSLQPDDFATYYCQQYSNYPLTFGGGTKVEIKRA
143

Dear colleague, I am looking for the recorded IC50 of the following binder: GIL92 scFv, fully germlined (scFv) scFv: QVQLVQSGAEVKKPGASVKVSCKASGYTFTDYYMHWVRQAPGQGLEWVGWINPYTGGAFYAQKFRGRVTMTRDTSISTAYMELSRLRSDDTAVYYCAREPEKFDFWGGDNWGRGTLVTVSSGGGGSGGGGSGGGGSAQAVLTQPPSVSGAPGQRVTISCTGSSSNIGAGYGVHWYQQLPGTAPKLLIYGNSNRPSGVPDRFSGSKSGTSASLAITGLQAEDEADYYCQSYDSSLSGYVFGGGTQLTVLSA
40

Dear colleague, I am looking for the recorded IC50 of the following binder: GIL68 scFv, fully germlined (scFv) scFv: QVQLVQSGAEVKKPGASVKVSCKASGYTFSDYYIHWVRQAPGQGLEWMGWVNPDTGGTRYAQKFQGRVTMTRDMSISTAYMELSRLRSDDTAVYYCARDLTGFDPFDIWGQGTLVTVSSGGGGSGGGGSGGGGSASSVLTQPPSVSVAPGKTARITCGGNNFRNKRVHWYQQKPGQAPVLVIYYDSDRPSGIPERFSGSRSGNTATLTISRVEAGDEADYYCQVWDSSTDRPLFGGGTKLTVLGA
14
